Reported values of composite z-score for individual entries
assay: small-molecule microarray binders of probe aShh, primary screen, biochemical, biotinylated probe, 635/667 nm fluorescence (AID 1114); conditions: higher = more signal;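 note: probe is biotin-labelled aShh protein from a stem cell growth factor screen; measures binding of labelled protein to compounds printed on the slide; score merges feature fluorescence at 667 nm with signal-to-noise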

Reference set, count: 3
[N-]=[N+]=Nc1ccccc1[C@H]1OC(c2ccc(OCCCO)cc2)=N[C@@]1(CCS(=O)(=O)c1ccccc1)C(=O)NCC(O)CO (some centres undefined) ... 0.0611
COC(=O)[C@]1(CCC(=O)OC(C)(C)C)N=C(c2ccc(OCCCO)cc2)O[C@@H]1c1ccccc1CN=[N+]=[N-] ... 0.147
CC(C)C(=C=CC[C@H](O)c1ccc(OCCO)cc1)CCO ... 0.163

Now consider a different molecule.
Please look up its composite z-score: CC(C)C[C@@H]1NC(=O)[C@@H]2C[C@H](C(=O)NCc3ccc(F)cc3)[C@H](c3cccc(OCCO)c3)N2C1=O
0.147

###

system: Noggin (protein binding on small-molecule microarray); experiment: Noggin binders on small-molecule microarray, primary screen, biochemical, 635/667 nm fluorescence (AID 1095); conditions: 635 nm fluorescence, higher = more signal;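 note: score merges 667 nm feature fluorescence with signal to noise over triplicate slides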
Reported values of composite z-score for individual entries
Note: the reply should be a number with no unit written.

Reference set, count: 3
COc1cc2c(cc1OC)CN(C(=O)[C@H]1[C@@H]3C(=O)O[C@@H](c4ccccc4)[C@@H](c4ccccc4)N3[C@@H](c3ccc(O)cc3)[C@]13C(=O)Nc1ccccc13)CC2 ... 0.0366
COc1ccc(/C=C/C=O)cc1 ... 0.775
CC(C)C(=C=CC[C@@H](O)c1ccc(OCCO)cc1)C[C@@H](O)c1ccccn1 ... 1.08

Now consider a different molecule.
Please look up its composite z-score: O=C1O[C@H](c2ccccc2)[C@H](c2ccccc2)N2[C@H]1[C@@H](C(=O)N1CCCCCCC1)[C@]1(C(=O)Nc3ccc(C#CC4=CCCCC4)cc31)[C@H]2c1ccc(OCCO)cc1
1.72

###

Reported values of z-score for individual entries
assay: modulators of S6 phosphorylation in cells, primary screen, cell-based, A549, cytoblot, luminescence, serum-stimulated (AID 1158); details: A549 phospho-S6 cytoblot, 5 h, higher = more signal;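 note: serum-stimulated A549 lung adenocarcinoma cells; signal is phosphorylated S6 detected by cytoblot immunostaining with HRP secondary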
Note: the reply should be a number with no unit written.

Cc1ccc(S[C@]2(C(=O)NCCCN(C)C)CC(=O)N(Cc3cc(C(F)(F)F)cc(C(F)(F)F)c3)[C@@H]2c2ccc(CO)cc2I)cc1 ... -0.232
C=CC[C@@]1(C(=O)NCCN2CCOCC2)N=C(c2ccc(OCCCO)cc2)O[C@@H]1c1ccccc1N=[N+]=[N-] ... -0.291
CC(C)N1C(=O)[C@@]2(Cc3ccccc31)c1ccccc1C(=O)N(Cc1ccccc1Cl)[C@H]2c1ccc(CO)cc1 ... 1.17

Now consider a different compound.
Please look up its z-score: COC(=O)[C@@]1(CCC(=O)OC(C)(C)C)N=C(c2ccc(OCCCO)cc2)O[C@H]1c1ccccc1N=[N+]=[N-]
-0.117

###

Reported values of z-score for individual entries
assay: basal RPMI8226 mitochondrial membrane potential changes, profiling panel, cell-based, JC-1 fluorescence, 24 h, 100 nL compound (AID 1169); settings: RPMI8226 myeloma, JC-1 mitochondrial potential fluorescence, higher = more signal; note: test concentration not given here
Note: the reply should be a number with no unit written.

Reference set, count: 8
CCOC(=O)C[C@H]1[C@H](OC(=O)c2ccc(C(=O)c3ccccc3)cc2)[C@@H](NC(=O)CC(C)C)c2cc(OCCCO)ccc2N1C(=O)c1ccc2ccccc2n1 ... 0.944
Cc1nc2cc(Br)ccc2c(=O)o1 ... 0.649
COc1ccc(CCNC(=O)[C@@]2(Sc3ccc(C)cc3)CC(=O)N(C(C)C)[C@@H]2c2ccc(CO)cc2I)cc1 ... -0.686
CCC(CC)C(O)C1C=CC2C(=O)NC(=O)C2N1Nc1ccc(Cl)cc1Cl (stereo not drawn) ... -0.661
C=CCN1C(=O)[C@]2(O[C@H](CCn3cc([C@H](O)c4ccccc4)nn3)[C@@H]([Si](C)(C)c3ccc(OC)cc3)[C@@H]2C)c2ccccc21 ... -0.953
CCC[C@@H]1C[C@@]1(CCC)[C@@H](NS(=O)(=O)c1cccc2cccnc12)c1ccc(Cl)cc1 ... 0.137
C=C(CC1([C@@H](NP(=O)(c2ccccc2)c2ccccc2)[C@H]2C[C@@H]2CCCC)CC1)c1ccccc1 ... -0.968
[N-]=[N+]=NCc1ccccc1C[C@]1(C(N)=O)COC(c2ccc(OCCCO)cc2)=N1 ... -0.425

Please look up its z-score: NC(=O)NCC#Cc1ccc2c(c1)[C@]1(C(=O)N2)[C@H](C(N)=O)[C@H]2C(=O)O[C@H](c3ccccc3)[C@H](c3ccccc3)N2[C@@H]1c1ccc(O)cc1
-0.758

Please look up its z-score: CC1(C)[C@@H]2CC(C(O)C3C=CC4C(=O)N(c5ccccc5)C(=O)C4N3Nc3ccc([N+](=O)[O-])cc3)=C[C@H]1C2 (stereo partly drawn)
0.428

Please look up its z-score: CN1C(=O)C2C=CC(C(O)C3CC=CCC3)N(N(c3ccccc3)c3ccccc3)C2C1=O (stereo not drawn)
-0.23

Please look up its z-score: CO[C@H]1O[C@H](CO)[C@@H](OC(=O)Nc2ccc(Oc3ccccc3)cc2)[C@H](OC(=O)Nc2ccc3c(c2)OCO3)[C@H]1OC(=O)Nc1ccc2c(c1)OCO2
-0.583

Please look up its z-score: CN1C(=O)C2C=CC(C(O)c3ccc([N+](=O)[O-])cc3)N(N3CCCCC3)C2C1=O (stereo not drawn)
0.0849

Please look up its z-score: O=C1C2C=CC(C(O)CCc3ccccc3)N(Nc3ccccc3F)C2C(=O)N1c1ccccc1 (stereo not drawn)
-0.448

Please look up its z-score: COc1ccc(-c2cc3c(c(-c4ccc(Oc5ccccc5)cc4)n2)[Si](C(C)C)(C(C)C)OC3)cn1
-0.845

Please look up its z-score: C[N+](C)(C)CCCCCCNC(=O)[C@@H]1C[C@@H]2C(=O)N[C@@H](Cc3ccccc3)C(=O)N2[C@@H]1c1cccc(OCCO)c1
-0.267

Please look up its z-score: COCC(=C=CC[C@@H](O)c1cccc(OCCO)c1)C[C@@H](O)c1ccccn1
0.00702

Please look up its z-score: COCCOC(=O)N1C(=O)[C@@]2(c3cc(C#Cc4ccc(OC)cc4)ccc31)[C@H](c1ccc(OCCO)cc1)N1[C@H](c3ccccc3)[C@H](c3ccccc3)OC(=O)[C@H]1[C@@H]2C(=O)N1CCN(c2ncccn2)CC1
-0.351

Please look up its z-score: O=C1O[C@@H](c2ccccc2)[C@@H](c2ccccc2)N2[C@@H](c3ccccc3OCCO)[C@]3(C(=O)Nc4ccc(C#CC5=CCCCC5)cc43)[C@@H](C(=O)N3CCCCCCC3)[C@H]12
-0.715
